Data provenance: PubChem BioAssay (NCI)

# Tested on: HS 578T breast
# Protocol description: NCI-60 one-dose screen, 48 h (100 = growth as untreated, 0 = no growth, -100 = all killed)
# Settings: 10 µM
Compounds without any hit were thinned out: in the full panel of roughly 83,000, 20% have a hit.
Recorded endpoint: growth (%)

INSERT INTO measurements (molecule, recorded_endpoint, reported_measurement) VALUES
  ('CCCCCCCCCCC(C)Br (centres undefined)', 'growth', 116),
  ('CCOC(=O)CCCS(C)(=O)=O', 'growth', 101),
  ('CCOc1ccc2[nH]c(=S)sc2c1', 'growth', 96),
  ('O=C(CN1CCNCC1)N1CCOCC1', 'growth', 102),
  ('O=C(O)CCC(NC(=O)OCc1ccccc1)C(=O)O (centres undefined)', 'growth', 107),
  ('N#C/C(=C\c1cc(O)c(O)c(O)c1)C(N)=O', 'growth', 110),
  ('Cc1cc(NC(=O)CSCC(=O)O)no1', 'growth', 78),
  ('Cc1ccccc1N=C(c1ccccc1)C1C(=O)c2ccccc2C1=O', 'growth', 83),
  ('COC(=O)c1ccccc1N(C)C', 'growth', 105),
  ('CCC/C=C(/C(C)=O)C(=O)OCC', 'growth', 114),
  ('COc1ccc(C2OC(N)=C(O)C2=O)cc1OC (centres undefined)', 'growth', 70.1),
  ('CC(=O)OCC1CCCO1 (centres undefined)', 'growth', 94.2),
  ('OC1OC(COC(c2ccccc2)(c2ccccc2)c2ccccc2)C(O)C(O)C1O (centres undefined)', 'growth', 105),
  ('CN(C)c1ccc(S(=O)(=O)O)cc1', 'growth', 114);
